src = ChEMBL document CHEMBL2146454

# test_details: Tmax in Lewis rat at 10 mg/kg, po
# Type: ADME, organism-based
# Design: dose 10 mg/kg, route oral
# condition_label: in vivo
endpoint_label: Tmax (h)
Write the value in h as a bare number.

Request: Consider the molecule C[C@H](N)CNc1nc(-c2ccncc2)cc2cnccc12 and give its measured Tmax.
Response: 2

* * *

# target_of_assay: Protein kinase C delta type (Homo sapiens, UniProt Q05655)
# Sequence (Q05655 whole entry): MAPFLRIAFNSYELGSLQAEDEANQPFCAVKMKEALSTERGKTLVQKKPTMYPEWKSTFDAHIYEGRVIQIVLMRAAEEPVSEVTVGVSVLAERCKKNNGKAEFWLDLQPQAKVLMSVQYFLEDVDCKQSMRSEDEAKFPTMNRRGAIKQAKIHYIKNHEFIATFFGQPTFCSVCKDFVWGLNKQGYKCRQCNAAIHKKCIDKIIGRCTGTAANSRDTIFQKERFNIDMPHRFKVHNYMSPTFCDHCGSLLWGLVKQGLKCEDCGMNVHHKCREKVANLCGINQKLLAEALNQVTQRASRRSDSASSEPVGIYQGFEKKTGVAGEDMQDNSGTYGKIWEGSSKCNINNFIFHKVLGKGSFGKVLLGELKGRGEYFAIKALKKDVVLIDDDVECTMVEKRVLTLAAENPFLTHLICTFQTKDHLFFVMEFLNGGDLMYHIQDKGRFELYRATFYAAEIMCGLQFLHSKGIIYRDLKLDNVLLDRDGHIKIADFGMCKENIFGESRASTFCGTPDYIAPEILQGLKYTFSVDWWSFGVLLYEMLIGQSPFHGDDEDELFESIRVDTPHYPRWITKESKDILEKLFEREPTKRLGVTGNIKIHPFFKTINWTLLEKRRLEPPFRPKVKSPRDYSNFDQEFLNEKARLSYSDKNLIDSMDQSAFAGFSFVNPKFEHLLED
# test_details: Inhibition of recombinant human PKCdelta assessed as [33P]-ATP incorporation into tridecapeptide substrate after 60 mins by scintillation proximity assay
Please use rule met for IC50 under 300 nM and rule not met for everything else, ties included.

Request: Lab note: confirm whether the reported IC50 for this compound is below 300 nM, equality not counting. compound: NC1CCCN(c2nc(-c3ccncc3)cc3cnccc23)C1 (stereo unspecified)
Response: rule met

Request: Please state whether IC50 is below 300 nM for CC(C)(N)CNc1nc(-c2ccncc2Cl)cc2cnccc12
Response: rule met

Request: Lab log: compare recorded IC50 with 300 nM; is it strictly lower for CC(C)(N)CNc1nc(-c2ccncc2F)cc2cnccc12 ?
Response: rule met

Request: Dear colleague, could you confirm whether IC50 of NCCNc1nc(-c2ccncc2)cc2ccncc12 falls below 300 nM? Thanks.
Response: rule not met

Request: Does the reported IC50 of the following compound sit strictly below 300 nM? C[C@H](N)CNc1nc(-c2ccncc2)cc2cnccc12
Response: rule met

Request: Input c1cc(-c2cc3cnccc3c(N3CCCNCC3)n2)ccn1 ; condition: IC50 strictly below 300 nM. Does it hold?
Response: rule met

Request: Hello, is IC50 of the following compound strictly smaller than 300 nM? NC(CNc1nc(-c2ccncc2)cc2cnccc12)Cc1ccccc1 (stereo unspecified)
Response: rule not met

Request: Report whether reported IC50 is lower than 300 nM (strictly) for OCCNc1nc(-c2ccncc2)cc2cnccc12
Response: rule not met

Request: Given NCCNc1nc(-c2ccncc2)cc2ncccc12 , is recorded IC50 strictly lower than 300 nM?
Response: rule not met

Request: Strictly below 300 nM in IC50? CC(C)(N)CNc1nc(-c2cccnc2)cc2cnccc12
Response: rule not met

Request: # check: IC50 < 300 nM for CNCCNc1nc(-c2ccncc2)cc2cnccc12
Response: rule met

Request: Is 300 nM strictly greater than the compound's reported IC50? compound: NCCNc1nc(-c2ccncc2)nc2cnccc12
Response: rule met

Request: Is IC50 of NCCNc1cc(-c2ccncc2)cc2cnccc12 strictly below 300 nM?
Response: rule met

Request: Dear colleague, could you confirm whether IC50 of CC(C)Nc1cc(-c2cc3cnccc3c(NCC(C)(C)N)n2)ccn1 falls below 300 nM? Thanks.
Response: rule not met

Request: Consider NCCNc1nc(-c2ccncc2)cc2ccccc12 . Does its IC50 lie strictly below 300 nM?
Response: rule not met

Request: Confirm or reject: IC50 of NCCOc1nc(-c2ccncc2)cc2cnccc12 lies strictly below 300 nM
Response: rule not met

Request: Does NCCCNc1nc(-c2ccncc2)cc2cnccc12 have IC50 strictly under 300 nM?
Response: rule met

Request: Check if IC50 falls below 300 nM for O=C1CN(c2nc(-c3ccncc3)cc3cnccc23)CCN1 .
Response: rule not met

Request: Would you kindly verify if IC50 of CN(CCN)c1nc(-c2ccncc2)cc2cnccc12 is strictly less than 300 nM?
Response: rule not met

Request: Dear colleague, could you confirm whether IC50 of Cc1cnccc1-c1cc2cnccc2c(NCC(C)(C)N)n1 falls below 300 nM? Thanks.
Response: rule not met
